- target or test system: PI3-kinase p110-alpha/p85-alpha (Homo sapiens)
- Sequence (P27986 whole entry): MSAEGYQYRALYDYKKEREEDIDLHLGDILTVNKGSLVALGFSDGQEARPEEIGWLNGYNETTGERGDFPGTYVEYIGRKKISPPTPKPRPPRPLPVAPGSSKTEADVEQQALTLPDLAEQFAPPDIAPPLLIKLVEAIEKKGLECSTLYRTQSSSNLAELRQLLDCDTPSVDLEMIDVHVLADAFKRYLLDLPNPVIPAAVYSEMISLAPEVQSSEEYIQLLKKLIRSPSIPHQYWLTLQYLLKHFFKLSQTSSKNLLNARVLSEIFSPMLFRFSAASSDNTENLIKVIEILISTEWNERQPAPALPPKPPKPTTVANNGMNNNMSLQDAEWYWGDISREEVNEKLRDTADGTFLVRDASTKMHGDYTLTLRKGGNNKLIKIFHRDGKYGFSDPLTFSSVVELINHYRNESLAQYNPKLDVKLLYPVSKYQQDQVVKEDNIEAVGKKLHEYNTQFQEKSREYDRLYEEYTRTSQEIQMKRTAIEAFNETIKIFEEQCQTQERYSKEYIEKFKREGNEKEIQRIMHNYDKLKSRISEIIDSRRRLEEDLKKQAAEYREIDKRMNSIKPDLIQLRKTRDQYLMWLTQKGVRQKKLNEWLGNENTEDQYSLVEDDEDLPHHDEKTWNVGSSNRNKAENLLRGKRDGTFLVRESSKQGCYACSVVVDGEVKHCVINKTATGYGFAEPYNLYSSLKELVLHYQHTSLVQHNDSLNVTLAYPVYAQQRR
- Sequence (P42336 whole entry): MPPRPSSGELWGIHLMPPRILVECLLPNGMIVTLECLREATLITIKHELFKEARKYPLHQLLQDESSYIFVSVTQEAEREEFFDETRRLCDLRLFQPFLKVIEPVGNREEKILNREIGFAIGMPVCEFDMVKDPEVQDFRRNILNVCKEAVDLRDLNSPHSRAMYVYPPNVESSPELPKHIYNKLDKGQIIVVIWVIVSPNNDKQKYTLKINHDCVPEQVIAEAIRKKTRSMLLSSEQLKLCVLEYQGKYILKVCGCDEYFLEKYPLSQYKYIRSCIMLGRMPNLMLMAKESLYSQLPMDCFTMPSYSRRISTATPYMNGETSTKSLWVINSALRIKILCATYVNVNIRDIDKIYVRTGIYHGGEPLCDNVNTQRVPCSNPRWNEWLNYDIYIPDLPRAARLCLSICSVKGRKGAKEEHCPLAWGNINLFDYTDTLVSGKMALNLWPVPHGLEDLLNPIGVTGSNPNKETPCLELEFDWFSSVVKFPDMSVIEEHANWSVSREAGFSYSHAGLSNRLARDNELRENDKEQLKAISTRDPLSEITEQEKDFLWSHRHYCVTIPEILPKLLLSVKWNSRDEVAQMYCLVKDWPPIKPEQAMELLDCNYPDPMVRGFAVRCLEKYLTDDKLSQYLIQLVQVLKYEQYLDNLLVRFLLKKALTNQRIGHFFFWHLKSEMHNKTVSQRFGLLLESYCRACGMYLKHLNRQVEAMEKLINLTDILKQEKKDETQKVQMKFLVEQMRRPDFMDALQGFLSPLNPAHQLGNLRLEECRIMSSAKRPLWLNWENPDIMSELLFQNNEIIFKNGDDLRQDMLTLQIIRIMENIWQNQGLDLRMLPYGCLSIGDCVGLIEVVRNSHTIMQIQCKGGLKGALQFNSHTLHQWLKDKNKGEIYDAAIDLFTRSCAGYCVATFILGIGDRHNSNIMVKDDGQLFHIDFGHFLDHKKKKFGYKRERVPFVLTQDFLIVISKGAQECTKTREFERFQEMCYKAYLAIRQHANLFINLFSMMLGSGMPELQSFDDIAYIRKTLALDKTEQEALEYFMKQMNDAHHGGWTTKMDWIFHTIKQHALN
- assay details: Inhibition of recombinant human full-length PI3K p110alpha/p85alpha (322 to 600) expressed in baculovirus infected Sf21 cells using phosphatidylinositol 4,5-bisphosphate as substrate preincubated for 15 mins followed by addition of ATP and measured after 30 mins by fluorescence polarisation assay
pKi: −log10 of the molar value.
observed property: pKi

Before answering, review these 2 worked examples.
CNS(=O)(=O)N1CC[C@](C)(N2CCc3c(-c4cnc(N)nc4)nc(N4CCOCC4)nc32)C1 = > 10.74
CC(C)C(=O)N1CC[C@](C)(N2CCc3c(-c4cnc(N)nc4)nc(N4CCOCC4)nc32)C1 = > 10.74

Turning now to a further record.
The compound listed as `COC(=O)N1CC[C@](CO)(Nc2nc(N3CCOCC3)nc(-c3cnc(N)nc3)c2F)C1` has a reported pKi of > 10.74
